system: Blumeria graminis f. sp. tritici; test: Test G: preventive spray on wheat seedlings, wheat powdery mildew, visual disease rating;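 also: rated 8 days after spore dust inoculation at 20 °C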; type: in vivo; details: 192 h, 200 ppm test suspension, Blumeria graminis f. sp. tritici inoculated the day after spraying
Consider the following compounds; for each one, report its pest or weed control at 200 ppm.
// note: answer is a bare numeric in %

The compound identified as COCCOc1c(-c2ccc(F)cc2Cl)c(C)nn1C registered its pest or weed control at 200 ppm at 0

The reported value for Cc1nn(C)c(C(O)C2CCCCC2)c1-c1c(F)cccc1Cl (stereo not drawn) in terms of pest or weed control at 200 ppm is 100

pest or weed control at 200 ppm recorded for this compound, Cc1nn(C)c(N2CCOCC2)c1-c1ccc(F)cc1Cl , is 94

Note to self: pest or weed control at 200 ppm recorded for Cc1nn(C)c(OCC(C)C)c1-c1c(F)cc(F)cc1F was 0

Entry Cc1nn(C)c(C(O)C(C)C)c1-c1c(F)cccc1Cl (stereo not drawn) ; pest or weed control at 200 ppm = 97

For CCC(C)COc1c(-c2ccc(F)cc2Br)c(C)nn1C (stereo not drawn) the compound record lists pest or weed control at 200 ppm as 0

Measured pest or weed control at 200 ppm of Cc1nn(C)c(OC2CCCCC2)c1-c1ccc(F)cc1Cl : 73

For this compound ( CCCCNc1c(-c2ccc(Cl)cc2Cl)c(C)nn1C ), measured pest or weed control at 200 ppm is 58

# compound CCC(C)C(N)c1c(-c2c(F)cccc2Cl)c(C)nn1C (stereo not drawn) ; its pest or weed control at 200 ppm = 56

The reported pest or weed control at 200 ppm of the compound Cc1nn(C)c(OCC2CC2)c1-c1ccc(F)cc1Cl was 0

Form field pest or weed control at 200 ppm, entry Cc1nn(C)c(N2CCC(C)CC2)c1-c1ccc(F)cc1Cl : 0

The value of pest or weed control at 200 ppm measured for the compound CSC(c1c(-c2c(F)cccc2Cl)c(C)nn1C)C(C)C (stereo not drawn) turned out to be 0

Noted for Cc1nn(C)c(NCC(C)C)c1-c1ccc(Cl)cc1Cl : its pest or weed control at 200 ppm reads 93

The recorded pest or weed control at 200 ppm for Cc1nn(C)c(NC2CCCCC2)c1-c1ccc(F)cc1F is 91

Short answer for Cc1nn(C)c(C(O)C(C)C)c1-c1ccc(F)cc1Cl (stereo not drawn) : pest or weed control at 200 ppm was 97

Measured pest or weed control at 200 ppm of CCC(C)C(SC)c1c(-c2c(F)cccc2Cl)c(C)nn1C (stereo not drawn) : 69

According to the records, this compound CNC(c1c(-c2c(F)cccc2Cl)c(C)nn1C)C(C)C (stereo not drawn) displays pest or weed control at 200 ppm of 99

Entry CCC(C)C(O)c1c(-c2ccc(F)cc2Cl)c(C)nn1C (stereo not drawn) , pest or weed control at 200 ppm reported as 99
